Hello, the source for this data is patent US20260060947A1, in case you need it.

assay: Cell viability / toxicity by sulforhodamine B assay; format: cell-based; settings: mouse, BV2 microglial cells; BV2 cell culture; read-out: LC50
OUTCOME MEASURE: CC50 at 24 h (µM)
Give a bare numeral; the unit µM is implied.

I am curious: what CC50 at 24 h value has been reported for O=C(O)c1ccc(/C=C/[N+](=O)[O-])cc1 [BANA, (E)-4-(2-nitrovinyl) benzoic acid] ?
50

====

assay: BANA plasma levels by RP-HPLC after oral administration; type: in vivo, SOD1^G93A rats; settings: female, SOD1^G93A transgenic, rat, plasma, po, 100 mg/kg, SOD1^G93A symptomatic rats, 15 days oral daily 100 mg/kg; plasma incubated with HgCl2 (20 mM, 37° C., 30 min); read-out: [BANA] in plasma, sample + HgCl2
OUTCOME MEASURE: concentration at 15 days (µM)
Give a bare numeral; the unit µM is implied.

I am curious: what concentration at 15 days value has been reported for O=C(O)c1ccc(/C=C/[N+](=O)[O-])cc1 [BANA, (E)-4-(2-nitrovinyl) benzoic acid] ?
3.29
